# System: SF-539 CNS
# Assay Method Text: NCI-60 one-dose screen, 48 h
# Condition: 10 µM unless noted
The panel holds about 83,000 compounds, 20% with a hit somewhere; the sample as a whole holds those more often. The source made the active and inactive calls. The calls were made as follows: active = growth percent below 10; inactive = the rest.
Result category, one only: YES = active, NO = inactive

Answered cases to consult:
[[record]]
sample_smiles = "N#Cc1c(-c2cccnc2)cc(-c2ccc3ccccc3c2)[nH]c1=O"
category = "YES"

[[record]]
sample_smiles = "COc1cc(-c2cc(-c3cccc(OCC(=O)O)c3)[nH]c(=O)c2C#N)cc(OC)c1OC"
category = "NO"

[[record]]
sample_smiles = "c1ccc(-c2csc(Nc3cccc(Nc4nc(-c5ccccc5)cs4)c3)n2)cc1"
category = "NO"

[[record]]
sample_smiles = "N/C(=N\\c1nc2ccccc2s1)NC(=O)Nc1c(Cl)cccc1Cl"
category = "NO"


Please share the test call associated with CN1CCN(c2ccc3c(c2)nc(NNC(=O)c2cnccn2)c2cccn23)CC1 .
YES

---

# Test system: LOX IMVI melanoma
# Assay Method Text: NCI-60 one-dose screen, 48 h
# Condition: 10 µM
This is part of a sample that, as a whole, favours compounds with a hit. Of some 83,000 tested, about 20% had one in any assay. The source made the active and inactive calls. How the source made its calls: active means growth percent below 10; inactive means the rest.
Lab note: assign the record to one of active, inactive

// known answers, use as guide
[[record]]
compound = "Cc1cccc(NC(=O)CN2CCN(c3ncnc4c3cnn4-c3ccccc3)CC2)c1"
category = "inactive"

[[record]]
compound = "COc1ccc(C(=O)/C=C/c2cccnc2)cc1S(N)(=O)=O"
category = "active"

[[record]]
compound = "CCOC(=O)/C=C/c1cccc2c1C(=O)NC(C)(c1cc3cc(Cl)ccc3oc1=O)N2 (stereo not given)"
category = "inactive"

[[record]]
compound = "COc1ccc(/C=C/c2n(Cc3ccc4ccccc4c3)c3ccccc3[n+]2Cc2ccc3ccccc3c2)cc1"
category = "active"


Query compound follows.
Call for entry N/N=C(\N)c1c(N)nc(=S)[nH]c1-c1ccc(Cl)cc1Cl :
inactive

---

# Tested on: SW-620 colon
# Assay Method Text: NCI-60 one-dose screen, 48 h
# Condition: 10 µM unless noted
About 83,000 compounds went through this panel and 20% of them were active in at least one assay; those are over-represented in the sample as a whole. Calls of active or inactive are those of the source. Rule for the calls: active = growth percent below 10; inactive = the rest.
Pick one and only one: label 1 for active, label 0 for inactive

Known results for molecules:
[[record]]
molecule = "C#CCOc1cc(N(CC)CC)ccc1C(C(=O)NC(C)(C)C)N(C(=O)C1CCc2cc(F)ccc2O1)c1ccc(F)cc1 (stereo not drawn)"
category = "label 0"

[[record]]
molecule = "Cc1cnc(C(=O)NNc2nc3cc(F)ccc3n3c(C(=O)N4CC5CC(C4)N5)ccc23)cn1"
category = "label 0"

[[record]]
molecule = "CN(C)c1ccnc(CNCCSC2(c3ccc(C(F)(F)F)cc3)c3ccccc3C=Cc3ccccc32)c1"
category = "label 1"


Now let's try a different one.
Dear colleague, could you share the recorded outcome for CC(=O)OC[C@@]1(C)C2CC[C@]3(C)C(CC=C4C5CC(C)(C)CC[C@]5(C(=O)Nc5ccc(F)cc5)CC[C@]43C)[C@@]2(C)C[C@@H](OC(C)=O)[C@@H]1OC(C)=O (stereo partly drawn) when you have a moment?
label 0

---

# Tested on: SF-539 CNS
# Assay Method Text: NCI-60 one-dose screen, 48 h
# Condition: 10 µM unless noted
This is part of a sample that, as a whole, favours compounds with a hit. Of some 83,000 tested, about 20% had one in any assay. Active and inactive are the calls of the source. How the source made its calls: active means growth percent below 10; inactive means the rest.
Reply using exactly one outcome from active, inactive

Observe how each entry below is paired with its result.
[[record]]
compound = "Cc1ccc(C(=O)C(c2c[nH]c3ccccc23)c2c[nH]c3ccccc23)cc1"
category = "inactive"

[[record]]
compound = "COc1cc2c(c(OC)c1OC)C(=O)CC(c1cccc(NC(=O)c3cc(NC(=O)[C@H](C)N)ccc3Cl)c1)O2 (stereo partly drawn)"
category = "inactive"

[[record]]
compound = "CC(=O)Nc1cccc(-c2nc3cc(-c4ccc(O)cc4)ccc3n2C)c1"
category = "inactive"

[[record]]
compound = "COc1cc2c3c(n(CCCN4CCC[C@@H]4CO)c(=O)c2cc1OC)-c1cc2c(cc1C3=O)OCO2"
category = "active"


// outcome(item) with item = C=C1CC[C@@H]2[C@]3(C)COC(c4ccco4)O[C@@H]3CC[C@@]2(C)[C@@H]1C/C=C1/C(=O)OCC1OC(C)=O (stereo partly drawn)
active

Given Brc1ccc(N/N=C/c2c[nH]c3ccc(Br)cc23)nc1 , state the outcome it received in this test.
active

Give the logged outcome of this assay for the following compound: O=C(c1ccc(OCCN2CCOCC2)cc1)C1[C@H](c2ccc(Cl)cc2)[C@@H](c2ccccc2)NC12C(=O)Nc1ccc(Cl)cc12 (stereo partly drawn)
inactive

Short answer needed: outcome of this test for C=Cn1cc(C(=O)O)c(=O)c2cc(F)c(N3CCN(c4nccc(-c5nccs5)n4)CC3)cc21 ?
active
